Hey, just so you know, these numbers are from patent US20220370416A1.

Dmax for assorted compounds
# measured_target: HiBit-KRAS^G12C (Homo sapiens, UniProt P01116, G12C)
# Sequence (P01116 1-186 isoform P01116-2 G12C limits assumed): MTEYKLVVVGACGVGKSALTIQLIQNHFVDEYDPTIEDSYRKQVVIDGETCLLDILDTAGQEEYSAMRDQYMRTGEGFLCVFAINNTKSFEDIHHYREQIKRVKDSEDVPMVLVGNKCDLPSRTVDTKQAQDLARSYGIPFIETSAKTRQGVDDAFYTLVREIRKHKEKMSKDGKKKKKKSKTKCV
# test_details: HiBit degradation assay in MiaPaCa-2 HiBit-KRas^G12C cells
# Assay type: cell-based
# condition_parameters: MIA PaCa-2, MiaPaCa-2 HiBit-KRas^G12C cells; 0.5% DMSO; 24 hours; maximum degradation; read-out: KRas^G12C-HiBiT (MiaPaCa; 0.5% DMSO) DMax

compound	Dmax
C=CC(=O)N1CCN(c2nc(OCCN3CCC(COc4cc([C@H](C(=O)N5C[C@@H](O)C[C@H]5C(=O)N[C@@H](C)c5ccc(-c6scnc6C)cc5)C(C)C)on4)CC3)nc3c(F)c(-c4cc(O)cc5ccccc45)c(Cl)cc23)C[C@@H]1CC#N (atropisomer, axis not shown)	< 35%
C=CC(=O)N1CCN(c2nc(OCCN3CCC(COC4(C(=O)N[C@H](C(=O)N5C[C@H](O)C[C@H]5C(=O)N[C@@H](C)c5ccc(-c6scnc6C)cc5)C(C)(C)C)CC4)CC3)nc3c(F)c(-c4cc(O)cc5ccccc45)c(Cl)cc23)C[C@@H]1CC#N	> 70%
C=CC(=O)N1CCN(c2nc(OCCN3CCC(COc4cc([C@H](C(=O)N5C[C@H](O)C[C@H]5C(=O)N[C@@H](C)c5ccc(-c6ccnn6C)cc5)C(C)C)on4)CC3)nc3c(F)c(-c4cc(O)cc5ccccc45)c(Cl)cc23)C[C@@H]1CC#N (atropisomer, axis not shown)	> 70%

Look up Dmax of `C=CC(=O)N1CCN(c2nc(OCCN3CCC(OCCOCC(=O)N[C@H](C(=O)N4C[C@H](O)C[C@H]4C(=O)N[C@@H](C)c4ccc(-c5scnc5C)cc4)C(C)(C)C)CC3)nc3c(F)c(-c4cc(O)cc5ccccc45)c(Cl)cc23)C[C@@H]1CC#N` and report it.
> 70%

----------
DC50 for assorted compounds
# measured_target: HiBit-KRAS^G12C (Homo sapiens, UniProt P01116, G12C)
# test_details: HiBit degradation assay in SW1573 HiBit-KRas^G12C cells
# Assay type: cell-based
# Set-up: expressed in transfected cells; host or cells: SW1573 (clone E6), modified pcDNA3.1 vector, TK promoter
# condition_parameters: read-out: KRas^G12C-HiBiT (SW1573; 0.5% DMSO) IC50***; SW1573 HiBit-KRas^G12C, 0.5% DMSO, 24 hours

Look up DC50 of C=C(F)C(=O)N1CCN(c2nc(OCCN3CCC(C)(COc4cc([C@@H](C(=O)N5C[C@H](O)C[C@H]5C(=O)N[C@@H](C)c5ccc(-c6ccnn6C)cc5)C(C)C)on4)CC3)nc3c(F)c(-c4cc(O)cc5ccccc45)c(Cl)cc23)C[C@@H]1CC#N (atropisomer, axis not shown) and report it.
100 to 1000 nM

----------
# measured_target: HiBit-KRAS^G12C (Homo sapiens, UniProt P01116, G12C)
# test_details: HiBit degradation assay in SW1573 HiBit-KRas^G12C cells
# Assay type: cell-based
# Parameters: expressed in transfected cells; host or cells: SW1573 (clone E6), modified pcDNA3.1 vector, TK promoter
# condition_parameters: SW1573, SW1573 HiBit-KRas^G12C, 0.1% DMSO, 24 hours; read-out: KRas^G12C-HiBit (SW1573; 0.1% DMSO) Dmax**
measured_metric: Dmax

item_smiles	measurement
C=CC(=O)N1CCN(c2nc(O[C@H](C)CN3CC(COCC(=O)N[C@H](C(=O)N4C[C@H](O)C[C@H]4C(=O)N[C@@H](C)c4ccc(-c5scnc5C)cc4)C(C)(C)C)C3)nc3c(F)c(-c4cc(O)cc5ccccc45)c(Cl)cc23)CC1	< 35%

Look up Dmax of `C=CC(=O)N1CCN(c2nc(O[C@H](C)CN3CCC(OCCOCC(=O)N[C@H](C(=O)N4C[C@@H](O)C[C@H]4C(=O)N[C@@H](C)c4ccc(-c5scnc5C)cc4)C(C)(C)C)CC3)nc3c(F)c(-c4cc(O)cc5ccccc45)c(Cl)cc23)CC1` and report it.
35 to 70%

Look up Dmax of `C=CC(=O)N1CCN(c2nc(O[C@H](C)CN3CCC(OCCOCCOCCOCCOc4cc(-c5scnc5C)ccc4CNC(=O)[C@@H]4C[C@@H](O)CN4C(=O)[C@H](c4cc(C)no4)C(C)C)CC3)nc3c(F)c(-c4cc(O)cc5ccccc45)c(Cl)cc23)CC1` and report it.
< 35%

Look up Dmax of `C=CC(=O)N1CCN(c2nc(OC[C@@H]3C[C@@H](OCCOc4cc(-c5scnc5C)ccc4CNC(=O)[C@@H]4C[C@@H](O)CN4C(=O)[C@H](c4cc(C)no4)C(C)C)CN3C)nc3c2CCN(c2cccc4ccccc24)C3)C[C@@H]1CC#N` and report it.
35 to 70%

----------
# measured_target: HiBit-KRAS^G12C (Homo sapiens, UniProt P01116, G12C)
# test_details: HiBit degradation assay in SW1573 HiBit-KRas^G12C cells
# Format: cell-based
# Set-up: expressed in transfected cells; host or cells: SW1573 (clone E6), modified pcDNA3.1 vector, TK promoter
# condition_parameters: read-out: KRas^G12C-HiBiT (SW1573; 0.5% DMSO) IC50***; SW1573 HiBit-KRas^G12C, 0.5% DMSO, 24 hours
measured_metric: DC50

Enter recorded DC50 with HiBit-KRAS^G12C (Homo sapiens, UniProt P01116, G12C) for C=CC(=O)N1CCN(c2nc(OCCN3CCC(COc4cc([C@@H](C(=O)N5C[C@H](O)C[C@H]5C(=O)N[C@@H](C)c5ccc(-c6scnc6C)cc5)C(C)C)on4)CC3)nc3c(F)c(-c4cc(O)cc5ccccc45)c(Cl)cc23)C[C@@H]1CC#N [Compound 172] here.
> 1 µM

Enter recorded DC50 with HiBit-KRAS^G12C (Homo sapiens, UniProt P01116, G12C) for C=CC(=O)N1CCN(c2nc(O[C@H](C)CN3CCC(COc4cc([C@H](C(=O)N5C[C@H](O)C[C@H]5C(=O)N[C@@H](C)c5ccc(-c6scnc6C)cc5)C(C)C)on4)CC3)nc3c(F)c(-c4cc(O)cc5ccccc45)c(Cl)cc23)C[C@@H]1CC#N [Compound 153] here.
0.1 to 1 µM

Enter recorded DC50 with HiBit-KRAS^G12C (Homo sapiens, UniProt P01116, G12C) for C=CC(=O)N1CCN(c2nc(OCCN3CCC(F)(COCC(=O)N[C@H](C(=O)N4C[C@H](O)C[C@H]4C(=O)N[C@@H](C)c4ccc(-c5scnc5C)cc4)C(C)(C)C)CC3)nc3c(F)c(-c4cc(O)cc5ccccc45)c(Cl)cc23)C[C@@H]1CC#N [Compound 150] here.
0.1 to 1 µM

Enter recorded DC50 with HiBit-KRAS^G12C (Homo sapiens, UniProt P01116, G12C) for C=CC(=O)N1CCN(c2nc(OCCN3CCC(COc4cc([C@H](C(=O)N5C[C@H](O)C[C@H]5C(=O)N[C@@H](C)c5ccc(-c6scnc6C)cc5)C(C)C)on4)CC3)nc3c(F)c(-c4cc(O)cc5ccccc45)c(Cl)cc23)C[C@@H]1CC#N (atropisomer, axis not shown) [Compound 104] here.
0.1 to 1 µM

----------
# measured_target: HiBit-KRAS^G12C (Homo sapiens, UniProt P01116, G12C)
# test_details: HiBit degradation assay in SW1573 HiBit-KRas^G12C cells
# Assay type: cell-based
# Set-up: expressed in transfected cells; host or cells: SW1573 (clone E6), modified pcDNA3.1 vector, TK promoter
# condition_parameters: SW1573 HiBit-KRas^G12C, 0.1% DMSO, 24 hours; read-out: KRas^G12C-HIBit (SW1573; 0.1% DMSO) DC50*
# Protocol: Reagents. SW1573 (CRL-2170) and MiaPaCa-2 (CRL-1420) cells were purchased from ATCC. Both cell lines are […] for the G12C mutation in KRAS. […] Either SW1573 HiBit-KRas^G12C or MiaPaCa-2 HiBit-KRas^G12C cells were plated at 9000 cells/well in a 384 well plate (Corning #3770). […] Plates were then allowed to equilibrate to room temperature and fluorescence was measured using a Perkin-Elmer EnVision. […]
measured_metric: DC50

A selection of reference data follows.
compound	measured_target	DC50
C=CC(=O)N1CCN(c2nc(O[C@H](C)CN3CC(OCC(=O)N[C@H](C(=O)N4C[C@H](O)C[C@H]4C(=O)N[C@@H](C)c4ccc(-c5scnc5C)cc4)C(C)(C)C)C3)nc3c(F)c(-c4cc(O)cc5ccccc45)c(Cl)cc23)CC1	HiBit-KRAS^G12C (Homo sapiens, UniProt P01116, G12C)	> 1000 nM
C=CC(=O)N1CCN(c2nc(OCCN3CCC(OCCOc4cc([C@H](C(=O)N5C[C@H](O)C[C@H]5C(=O)N[C@@H](C)c5ccc(-c6scnc6C)cc5)C(C)C)on4)CC3)nc3c(F)c(-c4cc(O)cc5ccccc45)c(Cl)cc23)C[C@@H]1CC#N (atropisomer, axis not shown) [Compound 4]	HiBit-KRAS^G12C (Homo sapiens, UniProt P01116, G12C)	100 to 1000 nM
C=CC(=O)N1CCN(c2nc(O[C@H](C)CN3CCC(C4CCN(CC(=O)N[C@H](C(=O)N5C[C@H](O)C[C@H]5C(=O)N[C@@H](C)c5ccc(-c6scnc6C)cc5)C(C)(C)C)CC4)CC3)nc3c(F)c(-c4cc(O)cc5ccccc45)c(Cl)cc23)CC1	HiBit-KRAS^G12C (Homo sapiens, UniProt P01116, G12C)	> 1000 nM

Now look at this one.
Look up DC50 of `C=C(F)C(=O)N1CCN(c2nc(O[C@H](C)CN3CCC(COc4cc([C@H](C(=O)N5C[C@H](O)C[C@H]5C(=O)N[C@@H](C)c5ccc(-c6scnc6C)cc5)C(C)C)on4)CC3)nc3c(F)c(-c4cc(O)cc5ccccc45)c(Cl)cc23)CC1` and report it.
> 1000 nM
